- System: HEK-293T
- test-description: Multiplex assay against HEK293T
- Assay type: toxicity, cell-based
- run-conditions: human, 24 h, 1 µM, compound concentration 1 uM, replicate 1
measured-parameter: Population Apoptotic (%)
Answers are plain numbers, in %.

These solved cases illustrate the format of a correct answer.
line-notation: O=C1NC(=O)C(c2cnc3ccccn23)=C1c1cn2c3c(cc(F)cc13)CN(C(=O)N1CCCCC1)CC2
system-name: HEK-293T
numeric-value: 53
//
line-notation: COc1ccc(-c2ccc3c(N4CCOCC4)nc(N4C[C@@H](C)O[C@@H](C)C4)nc3n2)cc1CO
system-name: HEK-293T
numeric-value: 19

Quick batch: Population Apoptotic (%) for everything below.
1. S=C(NCCCc1c[nH]cn1)NCCCN(Cc1ccc(Cl)c(Cl)c1)c1ccc(Br)cn1
2. CN1CCN(C(=O)C(C)(C)c2ccc(C(=O)Nc3cn4cc(-c5cc(C(C)(C)C)cc(C(C)(C)C)c5)ccc4n3)cc2)CC1

1: 61; 2: 16

Data origin, for the record: ChEMBL document CHEMBL4689842
